biological target: Hematopoietic prostaglandin D synthase (Homo sapiens, UniProt O60760); assay: Inhibition HPGDS in human MEG01 cells assessed as reduction in PGD2 production incubated for 30 mins followed by stimulation with 5 uM ionomycin for 30 mins by enzyme immunoassay method; type: cell-based, MEG-01
Sequence (O60760 whole entry): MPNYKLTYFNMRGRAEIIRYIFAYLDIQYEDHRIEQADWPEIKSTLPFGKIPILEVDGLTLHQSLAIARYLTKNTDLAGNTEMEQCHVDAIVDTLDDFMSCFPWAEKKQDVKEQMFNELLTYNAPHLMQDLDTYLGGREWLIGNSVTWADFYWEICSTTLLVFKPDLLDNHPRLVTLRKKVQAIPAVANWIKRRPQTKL
I'd appreciate it if you marked entries YES when EC50 is lower than 100 nM and NO when it is not.

| structure | qualitative.label |
| --- | --- |
| c1ccc(-c2ncc(-c3cc[nH]n3)s2)cc1 | NO |
| CN(C)CCC(=O)Nc1cncc(-c2cccc3[nH]ccc23)c1 | NO |
| O=C(NC1CCN(CC(F)(F)F)CC1)c1ccc(-c2cccc(F)c2)nc1 | YES |
| CC(C)(O)c1nc(-c2ccc(CNC(=O)c3cnc(-c4ccccn4)nc3)cc2)no1 | YES |
| COc1cccc(-c2ccc(C(=O)NC3CCN(CC(F)(F)F)CC3)cn2)c1 | NO |

----------
target: Hematopoietic prostaglandin D synthase (Homo sapiens, UniProt O60760); assay: Binding affinity to human HPGDS expressed in Escherichia coli using 1-phenylpyrazole-4-carboxylic acid/6-(3-fluorophenyl)pyridine-3-carboxamide as reporter probe by ligand-observed 1D NMR T1rho binding assay
pKd: −log10 of the molar value.
# pKd annotations

| structure | assay.system | cmp | pKd |
| --- | --- | --- | --- |
| O=C(NC1CCN(CC(F)(F)F)CC1)c1ccc(-c2cccc(=O)[nH]2)nc1 | Hematopoietic prostaglandin D synthase (Homo sapiens, UniProt O60760) | = | 6.40 |
| O=C(NC1CCN(CC(F)(F)F)CC1)c1ccc(-c2ccc(=O)[nH]c2)nc1 | Hematopoietic prostaglandin D synthase (Homo sapiens, UniProt O60760) | = | 5.00 |
| O=C(NC1CCN(CC(F)(F)F)CC1)c1ccc(Oc2ccccc2)nc1 | Hematopoietic prostaglandin D synthase (Homo sapiens, UniProt O60760) | = | 7.22 |
| O=C1CN(c2ccc(C(=O)NC3CCN(CC(F)(F)F)CC3)cn2)CCN1 | Hematopoietic prostaglandin D synthase (Homo sapiens, UniProt O60760) | = | 6.00 |
| COc1cc(-c2ccc(C(=O)NC3CCN(CC(F)(F)F)CC3)cn2)ccn1 | Hematopoietic prostaglandin D synthase (Homo sapiens, UniProt O60760) | = | 5.70 |
| CC(C)(O)c1nc(-c2ccc(CNC(=O)c3cnc(-c4ccccn4)nc3)cc2)no1 | Hematopoietic prostaglandin D synthase (Homo sapiens, UniProt O60760) | = | 7.64 |
| O=C(CCN1CCCCC1)Nc1cncc(-c2cccc3[nH]ccc23)c1 | Hematopoietic prostaglandin D synthase (Homo sapiens, UniProt O60760) | = | 6.00 |
| COc1cccc(-c2ccc(C(=O)NC3CCN(CC(F)(F)F)CC3)cn2)c1 | Hematopoietic prostaglandin D synthase (Homo sapiens, UniProt O60760) | = | 7.36 |
| O=C(Cn1cnnn1)Nc1cncc(-c2cccc3[nH]ccc23)c1 | Hematopoietic prostaglandin D synthase (Homo sapiens, UniProt O60760) | = | 6.70 |
| c1ccc(-c2ncc(-c3cc[nH]n3)s2)cc1 | Hematopoietic prostaglandin D synthase (Homo sapiens, UniProt O60760) | = | 7.29 |
| CN(C)CCC(=O)Nc1cncc(-c2cccc3[nH]ccc23)c1 | Hematopoietic prostaglandin D synthase (Homo sapiens, UniProt O60760) | = | 6.47 |
| O=C1CC[C@@H](C(=O)Nc2cncc(-c3cccc4[nH]ccc34)c2)N1 | Hematopoietic prostaglandin D synthase (Homo sapiens, UniProt O60760) | = | 6.52 |
| COCCCNC(=O)c1nc(-c2cccc3[nH]ccc23)no1 | Hematopoietic prostaglandin D synthase (Homo sapiens, UniProt O60760) | = | 6.19 |
| CN(C)CCCC(=O)Nc1cncc(-c2cccc3[nH]ccc23)c1 | Hematopoietic prostaglandin D synthase (Homo sapiens, UniProt O60760) | = | 6.24 |
| CCC(=O)Nc1cncc(-c2cccc3[nH]ccc23)c1 | Hematopoietic prostaglandin D synthase (Homo sapiens, UniProt O60760) | = | 7.22 |
| O=C(CCc1cccnc1)Nc1cncc(-c2cccc3[nH]ccc23)c1 | Hematopoietic prostaglandin D synthase (Homo sapiens, UniProt O60760) | = | 7.30 |
| Cn1cncc1CC(=O)Nc1cncc(-c2cccc3[nH]ccc23)c1 | Hematopoietic prostaglandin D synthase (Homo sapiens, UniProt O60760) | > | 4.70 |
| O=C(NC1CCN(CC(F)(F)F)CC1)c1ccc(N2CCOCC2)nc1 | Hematopoietic prostaglandin D synthase (Homo sapiens, UniProt O60760) | = | 6.40 |
| O=C(NC1CCN(CC(F)(F)F)CC1)c1ccc(N2CCCC2)nc1 | Hematopoietic prostaglandin D synthase (Homo sapiens, UniProt O60760) | = | 6.70 |
| O=C(NC1CCN(CC(F)(F)F)CC1)c1ccc(-c2cc[nH]c(=O)c2)nc1 | Hematopoietic prostaglandin D synthase (Homo sapiens, UniProt O60760) | = | 6.70 |
| O=C(NC1CCN(CC(F)(F)F)CC1)c1ccc(N2CCNCC2)nc1 | Hematopoietic prostaglandin D synthase (Homo sapiens, UniProt O60760) | = | 4.89 |
| O=C(NC1CCN(CC(F)(F)F)CC1)c1ccc(N2CCCCC2)nc1 | Hematopoietic prostaglandin D synthase (Homo sapiens, UniProt O60760) | > | 7.00 |
| CN(C)c1ccc(C(=O)NC2CCN(CC(F)(F)F)CC2)cn1 | Hematopoietic prostaglandin D synthase (Homo sapiens, UniProt O60760) | = | 4.85 |
| O=C(NC1CCN(CC(F)(F)F)CC1)c1ccc(-c2cccc(F)c2)nc1 | Hematopoietic prostaglandin D synthase (Homo sapiens, UniProt O60760) | = | 8.02 |

The measured values listed here are drawn from ChEMBL document CHEMBL3425475.
